Data credit: paper PMC6888386

Target: hen egg white lysozyme (HEWL) (Gallus gallus, UniProt P00698)
Construct: Hen egg white lysozyme (HEWL), thioflavin T (ThT), and Congo red (CR) were purchased from Sigma-Aldrich
Sequence (P00698 19-147): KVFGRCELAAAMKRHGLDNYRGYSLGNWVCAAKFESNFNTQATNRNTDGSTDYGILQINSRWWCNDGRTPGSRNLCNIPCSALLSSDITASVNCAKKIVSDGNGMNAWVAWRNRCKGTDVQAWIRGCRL
Assay: ThT fluorescence assay of HEWL amyloid fibril formation
Conditions: HEWL 2 mg/mL (140 µM), 50 mM glycine buffer pH 2.5, 57 °C, stirring 250 rpm, 48 h, compound 0.03-2.6 µM, Figure 2, read-out: IC50 of prevention of HEWL amyloid fibril formation
measured endpoint: IC50 (nM)

| compound | measured endpoint | readout unit | recorded value |
| --- | --- | --- | --- |
| O=[N+]([O-])c1ccc(-c2cc(-c3ccc([N+](=O)[O-])cc3)cc(-c3ccc([N+](=O)[O-])cc3)c2)cc1 [Compound 3, 1,3,5-tris(4-nitrophenyl)benzene] | IC50 | nM | 190 |
| Cc1ccc(-c2cc(-c3ccc(C)cc3)cc(-c3ccc(C)cc3)c2)cc1 [Compound 4, 1,3,5-tris(4-methylphenyl)benzene] | IC50 | nM | 400 |
| c1ccc(-c2cc(-c3ccccc3)cc(-c3ccccc3)c2)cc1 [Compound 1, 1,3,5-triphenylbenzene] | IC50 | nM | 100 |
| COc1ccc(-c2cc(-c3ccc(OC)cc3)cc(-c3ccc(OC)cc3)c2)cc1 [Compound 5, 1,3,5-tris(4-methoxyphenyl)benzene] | IC50 | nM | 200 |
| Oc1ccc(-c2cc(-c3ccc(O)cc3)cc(-c3ccc(O)cc3)c2)cc1 [Compound 6, 1,3,5-tris(4-hydroxyphenyl)benzene] | IC50 | nM | 980 |
| Fc1ccc(-c2cc(-c3ccc(F)cc3)cc(-c3ccc(F)cc3)c2)cc1 [Compound 2, 1,3,5-tris(4-fluorophenyl)benzene] | IC50 | nM | 50 |
